Assay: Solubility of the compound at pH 6.8
Format: physicochemical
Conditions: buffer
experimental.endpoint: solubility (µM)
Give the value in µM but do not write µM after it.

Query: What value of solubility has been reported for the following molecule? C[C@@H](c1ccc(Cl)cc1)N1Cc2cncn2C(CC(C)(C)O)S1(=O)=O (some centres not stated)
Response: 500

Data provenance: ChEMBL document CHEMBL1208751
